B1: TPR 5TU (parent)
chain: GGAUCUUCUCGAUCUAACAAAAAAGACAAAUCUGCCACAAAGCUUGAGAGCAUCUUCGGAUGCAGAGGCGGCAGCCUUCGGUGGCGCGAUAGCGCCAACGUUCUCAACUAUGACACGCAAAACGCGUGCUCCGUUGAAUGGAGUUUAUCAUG

# Variants of: B1
# TEST: polymerase ribozyme fitness, log enrichment relative to wild type (log ratio); higher = more active; in vitro selection for triplet polymerase activity
Fewer inactive variants are shown than the library holds.
Reported polymerase ribozyme fitness (log ratio) is given for each of the following variants.
Please give only the number in your answer, with no unit.

Q) Field request: polymerase ribozyme fitness (log ratio) | item: G59A G92U C114A A119U
A) -3.59

Q) Field request: polymerase ribozyme fitness (log ratio) | item: A23C C87U G112U
A) -3.99

Q) Field request: polymerase ribozyme fitness (log ratio) | item: U53A G83A C118A
A) -1.88

Q) Field request: polymerase ribozyme fitness (log ratio) | item: U6G G50U C85U C116U
A) 0.202

Q) Field request: polymerase ribozyme fitness (log ratio) | item: G94C A97G A121U A122U
A) -0.691

Q) Field request: polymerase ribozyme fitness (log ratio) | item: C76U A122G
A) -0.0921

Q) Field request: polymerase ribozyme fitness (log ratio) | item: A22U C76U U102G
A) -3.01

Q) Field request: polymerase ribozyme fitness (log ratio) | item: U7C U9G A17U A26G G84A C116A
A) -3.98

Q) Field request: polymerase ribozyme fitness (log ratio) | item: C57A G133U
A) -3.13
